Target: human αvβ8-Integrin (Homo sapiens, UniProt P06756+P26012)
Sequence (P26012 43-684 limits assumed, one chain of several): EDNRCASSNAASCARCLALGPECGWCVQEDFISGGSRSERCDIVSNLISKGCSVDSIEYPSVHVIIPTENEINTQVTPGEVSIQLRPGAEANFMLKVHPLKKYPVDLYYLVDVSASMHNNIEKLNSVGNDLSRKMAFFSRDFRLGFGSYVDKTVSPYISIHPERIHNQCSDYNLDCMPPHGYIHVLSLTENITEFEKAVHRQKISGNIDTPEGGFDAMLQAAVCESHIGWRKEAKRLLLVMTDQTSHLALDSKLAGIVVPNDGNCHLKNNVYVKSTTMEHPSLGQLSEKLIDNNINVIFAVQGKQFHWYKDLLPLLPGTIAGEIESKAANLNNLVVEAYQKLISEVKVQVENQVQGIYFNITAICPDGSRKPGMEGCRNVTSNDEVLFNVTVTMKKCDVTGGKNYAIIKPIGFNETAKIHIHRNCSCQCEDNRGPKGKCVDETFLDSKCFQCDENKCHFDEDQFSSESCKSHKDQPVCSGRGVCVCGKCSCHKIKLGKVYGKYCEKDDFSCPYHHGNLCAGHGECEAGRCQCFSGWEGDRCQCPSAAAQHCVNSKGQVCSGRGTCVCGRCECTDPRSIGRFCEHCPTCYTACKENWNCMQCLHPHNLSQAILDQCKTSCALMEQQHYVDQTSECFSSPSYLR
Assay: ELISA-like solid-phase binding assay, soluble integrin αvβ8 vs coated LAP (TGF-β)
Settings: referenced to internal standard
observedProperty: pIC50
Quick note: pIC50 values are minus log10 of concentrations in mol/L.

Q: Report pIC50, nothing else, for this molecule: Cc1ccnc(NCCCC(=O)NCC(=O)NC(CC(=O)O)c2ccc(-c3cccc4ccccc34)cc2)c1 (stereo not shown) [Mol11*]
Result: 7.73

Q: Fill in pIC50 for record N=C(N)NCCC[C@@H]1NC(=O)[C@H](CCCCN)NC(=O)[C@@H](Cc2ccccc2)NC(=O)[C@H](CC(=O)O)NC(=O)CNC1=O [c(RGDfK)]
Result: 5.28

----------
Target: human αvβ3-integrin (Homo sapiens, UniProt P05106+P06756)
Sequence (P06756 31-992 limits assumed): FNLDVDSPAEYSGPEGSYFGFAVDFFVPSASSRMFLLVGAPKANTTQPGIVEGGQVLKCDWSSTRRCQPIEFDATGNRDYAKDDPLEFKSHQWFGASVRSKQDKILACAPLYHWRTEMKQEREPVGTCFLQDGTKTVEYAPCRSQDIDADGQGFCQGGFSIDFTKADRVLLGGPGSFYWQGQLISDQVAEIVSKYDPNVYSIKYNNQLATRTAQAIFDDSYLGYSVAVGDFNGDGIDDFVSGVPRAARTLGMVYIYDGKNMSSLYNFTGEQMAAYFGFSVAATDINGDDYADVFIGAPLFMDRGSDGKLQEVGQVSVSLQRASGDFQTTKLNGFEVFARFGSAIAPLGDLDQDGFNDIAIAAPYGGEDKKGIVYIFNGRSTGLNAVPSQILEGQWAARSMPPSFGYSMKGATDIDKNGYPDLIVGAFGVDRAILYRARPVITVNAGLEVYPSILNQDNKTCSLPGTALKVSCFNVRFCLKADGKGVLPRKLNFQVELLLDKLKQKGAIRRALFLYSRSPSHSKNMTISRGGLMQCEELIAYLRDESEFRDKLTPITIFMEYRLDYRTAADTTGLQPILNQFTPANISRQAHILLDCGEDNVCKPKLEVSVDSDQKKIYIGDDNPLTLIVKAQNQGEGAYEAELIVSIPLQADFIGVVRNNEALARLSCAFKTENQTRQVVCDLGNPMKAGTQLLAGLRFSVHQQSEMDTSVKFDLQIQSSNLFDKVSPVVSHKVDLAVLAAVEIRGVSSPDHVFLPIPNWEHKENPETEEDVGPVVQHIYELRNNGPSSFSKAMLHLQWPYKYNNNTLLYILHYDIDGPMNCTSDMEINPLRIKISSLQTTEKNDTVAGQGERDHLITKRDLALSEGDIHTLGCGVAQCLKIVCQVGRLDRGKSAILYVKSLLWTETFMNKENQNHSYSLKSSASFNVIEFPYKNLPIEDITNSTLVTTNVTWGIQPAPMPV
Sequence (P05106 27-718 limits assumed): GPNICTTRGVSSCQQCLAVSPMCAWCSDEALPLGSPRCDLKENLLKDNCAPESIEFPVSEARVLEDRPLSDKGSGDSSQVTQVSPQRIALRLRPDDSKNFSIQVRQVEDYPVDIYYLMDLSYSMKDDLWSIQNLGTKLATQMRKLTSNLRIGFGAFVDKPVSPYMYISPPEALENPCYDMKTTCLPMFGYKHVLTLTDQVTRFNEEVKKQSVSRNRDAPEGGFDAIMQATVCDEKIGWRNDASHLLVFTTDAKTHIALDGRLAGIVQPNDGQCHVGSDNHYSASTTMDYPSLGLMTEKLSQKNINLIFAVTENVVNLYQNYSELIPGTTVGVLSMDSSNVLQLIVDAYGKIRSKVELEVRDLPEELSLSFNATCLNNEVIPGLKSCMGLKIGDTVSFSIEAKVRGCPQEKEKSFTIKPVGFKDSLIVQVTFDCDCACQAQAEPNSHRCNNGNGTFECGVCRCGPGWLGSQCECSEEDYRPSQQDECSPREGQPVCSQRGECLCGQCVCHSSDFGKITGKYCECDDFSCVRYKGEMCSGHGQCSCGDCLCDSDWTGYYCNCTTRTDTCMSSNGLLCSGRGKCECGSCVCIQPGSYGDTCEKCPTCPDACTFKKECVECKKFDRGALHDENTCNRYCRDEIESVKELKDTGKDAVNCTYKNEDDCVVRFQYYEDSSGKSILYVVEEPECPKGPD
Assay: ELISA-like solid-phase binding assay, soluble integrin αvβ3 vs coated vitronectin
Details: coated vitronectin, soluble integrin; referenced to internal standard
Positions of bridges follow the written chain, without caps; N, C: chain ends. Non-standard residues stand in square brackets, D forms with d. Residues, ends and D or L forms follow the SMILES beside them. *: point of attachment. X2 = NC(=O)COCC(=O)NCCOCCOCCOCCN*
Please respond with reported IC50 for every item in the list.
Answer format: numeric, nM implied, no suffix.

Q: Send back human αvβ3-integrin (Homo sapiens, UniProt P05106+P06756) IC50 of N=C(N)NCCC[C@H](N)C(=O)NCC(=O)N[C@@H](CC(=O)O)C(=O)O only.
Result: 89

Q: Under human αvβ3-integrin (Homo sapiens, UniProt P05106+P06756), report IC50 for C[C@@H](O)[C@H](NC(=O)[C@H](CC(=O)O)NC(=O)CNC(=O)[C@H](CCCNC(=N)N)NC(=O)CN)C(=O)N1CCC[C@H]1C(=O)O [GRGDTP] (H-GRGDTP-OH)
Result: 28

Q: Give reported IC50 for Cc1ccnc(NCCCC(=O)NCC(=O)NC(CC(=O)O)c2ccc(-c3cccc4ccccc34)cc2)c1 (centres unmarked) (human αvβ3-integrin (Homo sapiens, UniProt P05106+P06756))
Result: 13.2

Q: Recall the reported IC50 of N=C(N)NCCC[C@@H]1NC(=O)[C@H](CCCCNC(=O)CCOCCOCCOCCOCCOCCOCCNC(=O)CCS)NC(=O)[C@@H](Cc2ccccc2)NC(=O)[C@H](CC(=O)O)NC(=O)CNC1=O [c(RGDfK)-Peg-MPA] on human αvβ3-integrin (Homo sapiens, UniProt P05106+P06756) and write it down.
Result: 15

Q: State measured IC50 of the compound NC(N)=NCCC[C@H](N)C(=O)NCC(=O)N[C@@H](CC(=O)O)C(=O)N[C@@H](CO)C(=O)O with human αvβ3-integrin (Homo sapiens, UniProt P05106+P06756).
Result: 45

Q: Look up and report IC50, with human αvβ3-integrin (Homo sapiens, UniProt P05106+P06756) as system, for NCCCC[C@H](NC(=O)[C@@H]1CCCN1C(=O)[C@H](CO)NC(=O)[C@H](CC(=O)O)NC(=O)CNC(=O)[C@H](CCCN=C(N)N)NC(=O)CN)C(=O)O
Result: 12.2

Q: Send back human αvβ3-integrin (Homo sapiens, UniProt P05106+P06756) IC50 of N=C(N)NCCC[C@H](NC(=O)CN)C(=O)NCC(=O)N[C@@H](CC(=O)O)C(=O)O [GRGD] (H-GRGD-OH) only.
Result: 55

Q: Fill: IC50 (human αvβ3-integrin (Homo sapiens, UniProt P05106+P06756)) for this compound C[C@H](N)C(=O)N[C@H]1CSSC[C@@H](C(=O)NCC(=O)O)NC(=O)[C@H](Cc2ccccc2)NC(=O)[C@@H]2CSSC[C@H](NC(=O)[C@H](CC(=O)O)NC1=O)C(=O)N[C@@H](CCCNC(=N)N)C(=O)NCC(=O)N[C@@H](CC(=O)O)C(=O)N2 [RGD-4C] (H-ACDCRGDCFCG-OH; disulfide 2-10, 4-8)
Result: 8.3

Q: State IC50 on human αvβ3-integrin (Homo sapiens, UniProt P05106+P06756). Entry: N=C(N)NCCC[C@@H]1NC(=O)[C@H](CS)NC(=O)[C@@H](Cc2ccccc2)NC(=O)[C@H](CC(=O)O)NC(=O)CNC1=O [c(RGDfC)] (cyclo(RGD[dF]C))
Result: 6.3

Q: # lookup: human αvβ3-integrin (Homo sapiens, UniProt P05106+P06756) IC50, key = N=C(N)NCCC[C@@H]1NC(=O)[C@@H]2CSSC[C@H](NC(=O)[C@H](CC(=O)O)NC(=O)CNC1=O)C(=O)N[C@@H](Cc1ccccc1)C(=O)N[C@H](C(=O)NCCOCCOCCOCCNC(=O)COCC(N)=O)CSCC(=O)N[C@@H](CCCCN)C(=O)N2 [NC100717] ({CH2CO}-KCRGDCFC-X2; disulfide 2-6; thioether N-8; N-terminus and C-terminus assumed)
Result: 1.1

Q: Specify the recorded IC50 for CC(C)C[C@H](NC(=O)[C@H](CO)NC(=O)[C@H](CC(=O)O)NC(=O)[C@H](CC(C)C)NC(=O)[C@H](CC(=O)O)NC(=O)[C@@H](NC(=O)[C@@H](N)CCCNC(=N)N)[C@@H](C)O)C(=O)N[C@@H](CCCNC(=N)N)C(=O)N[C@H](C(=O)O)[C@@H](C)O , system: human αvβ3-integrin (Homo sapiens, UniProt P05106+P06756).
Result: 6230

Q: Provide IC50, recorded with human αvβ3-integrin (Homo sapiens, UniProt P05106+P06756), of N=C(N)NCCC[C@H](NC(=O)CN)C(=O)NCC(=O)N[C@@H](CC(=O)O)C(=O)N[C@@H](CC(N)=O)C(=O)N1CCC[C@H]1C(=O)O [GRGDNP] (H-GRGDNP-OH)
Result: 45
